B1: Azoarcus group I ribozyme (parent)
chain: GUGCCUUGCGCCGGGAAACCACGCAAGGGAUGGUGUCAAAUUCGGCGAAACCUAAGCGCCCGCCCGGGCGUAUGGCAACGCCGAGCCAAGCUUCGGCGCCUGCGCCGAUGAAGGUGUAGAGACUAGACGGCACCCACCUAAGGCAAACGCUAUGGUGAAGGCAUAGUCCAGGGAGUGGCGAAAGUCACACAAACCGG

- Variants of: B1
- Test method notes: reverse-splicing fitness (ratio to wild type); higher = more active; in vitro selection; Mg2+ level not given
Is reverse-splicing fitness at least 0.02? Then satisfied. If not, not satisfied.

Look over these answered cases.
C82A A111U A120G A145G C150G U176A ... not satisfied
C82U A111U A120C A145C C150G C169G U176G ... not satisfied
C82G A111U A120G A145G C169A U176C ... satisfied
A111C A145U C150U C169U ... satisfied
A111G A120U A145C C169U U176A ... satisfied
C82U A120U C150G ... not satisfied
A111C A145C C150G C169A U176G ... not satisfied
C82A A111G A120U A145C C150U C169G U176A ... not satisfied

input: Is reverse-splicing fitness for C82G A111C A120G C150U C169U U176G at or above 0.02?
output: not satisfied

input: Reported reverse-splicing fitness at or above 0.02? C82U A111G A120C C150G
output: not satisfied

input: Given the entry C82U A111U A120C A145U U176G , answer whether its reverse-splicing fitness meets or surpasses 0.02.
output: not satisfied

input: Quick check, reverse-splicing fitness >= 0.02? C82G A111U A145G C150G
output: satisfied

input: Please indicate if the recorded reverse-splicing fitness for C82U A111G C150G U176G meets or exceeds 0.02.
output: not satisfied

input: Quick check, reverse-splicing fitness >= 0.02? C82G A111G A120C C169G U176G
output: not satisfied

Values were extracted from the RNAGym collection of RNA variant scans (doi:10.1093/molbev/msab373).
